# tested system: T1, Human TNFR2 recombinant protein (Sino 10417-H08H) (human, UniProt P20333 23-257)
# T1 construct: also called hTNFR2 (His tag)
# T1 sequence (looked up): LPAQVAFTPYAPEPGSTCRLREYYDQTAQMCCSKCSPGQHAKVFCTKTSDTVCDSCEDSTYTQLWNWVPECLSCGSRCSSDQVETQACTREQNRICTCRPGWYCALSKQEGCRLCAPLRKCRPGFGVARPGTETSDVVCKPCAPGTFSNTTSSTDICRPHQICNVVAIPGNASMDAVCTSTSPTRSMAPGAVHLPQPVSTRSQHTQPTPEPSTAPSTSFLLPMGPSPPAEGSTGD
# experimental details: SPR Biacore, antibody on Protein A chip, TNFR2 analyte
readout kind: koff (s⁻¹)
Express it in s⁻¹; write the number only.

// lookup koff for TNFR2 antibody #133 (antibody, V domains shown) VH: EVQLQESGAELVRSGASVKLSCTASGFNIKDYYIQWVKQRPEQGLEWIGWIDPESGNTKYAPKFQDKATMTADTSSNTAYLQLSGLTSEDSAVYYCNAYYDYDGSMDYWGQGTTVTVSS VL: DIVMTQSPLSLPVSLGDQASISCRSSQSLVHSNGNTYLHWYLQKPGQSPKLLIYKVSNRFSGVPDRFSGSGSGTDFTLKISRVETDDLGVYFCSQSTHVPTWTFGGGTKLEIK 0.00388

Now try TNFR2 antibody #224 (antibody, V domains shown) VH: EVQLQESGPEIVKPGASVKLSCTASGFNNKDIYMHWVKQRPEQGLEWIGRIDPATGNTKHDPKFQDKATLSSDTSSNTAYLQFSSLTSEDTAVYYCAHSPYGDFGAMDYWGQGTTVTVSS VL: DIQMTQSPAIMSASLGERVTMTCTASSSVSSNYLHWYQQKPGSSPKLWIYSTSNLPSGVPARFSGSGSGTSYSLTISSMEAEDAATYYCHQYHRSPWTFGGGTKLEIK . 2.36e-05

Also TNFR2 antibody #352 (antibody, V domains shown) VH: EVQLQESGPGLVAPSQSLSITCTVSGFSLTSYGVHWVRQPPGKGLEWLVVIWSDGGTTYNSALKSRLSISKDNSKSQVFLKMNSLQTDDTAMYYCARHDDDGYYAMDYWGQGTTVTVSS VL: DIVLTQSPSLMSASPGEKVTMTCSASSSVGYMYWYQQKPRSSPKPWIYLTSNLASGVPARFSGSGSGTSYSLTISSMEVEDAATYYCQQWSSDPFTFGSGTKLEIK ? 0.00225
